For each entry below, report its AC50 value.
- study.target: UniProt P35348
- Sequence (P35348 whole entry): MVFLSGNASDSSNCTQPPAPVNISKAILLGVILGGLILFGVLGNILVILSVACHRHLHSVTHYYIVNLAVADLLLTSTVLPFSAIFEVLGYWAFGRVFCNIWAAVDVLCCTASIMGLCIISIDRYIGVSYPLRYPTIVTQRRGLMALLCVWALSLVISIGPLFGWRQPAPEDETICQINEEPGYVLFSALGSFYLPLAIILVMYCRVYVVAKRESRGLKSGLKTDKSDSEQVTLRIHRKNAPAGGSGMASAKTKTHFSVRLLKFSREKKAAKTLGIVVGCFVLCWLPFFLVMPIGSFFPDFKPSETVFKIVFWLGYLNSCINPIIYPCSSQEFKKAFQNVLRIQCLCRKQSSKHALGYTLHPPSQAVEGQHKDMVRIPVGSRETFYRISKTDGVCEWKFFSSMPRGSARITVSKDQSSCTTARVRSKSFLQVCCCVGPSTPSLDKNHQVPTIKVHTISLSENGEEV
- Assay type: functional, cell-based

The reported AC50 of the compound O=C(O)CCn1c2c(c3ccccc31)C[C@H](NS(=O)(=O)c1ccc(F)cc1)CC2 was > 30 µM

The reported AC50 of the compound C[N+](C)(C)CCCCCCCCCC[N+](C)(C)C was > 30 µM

The reported AC50 of the compound CCC1(c2cccc(O)c2)CCCCN(C)C1 (stereo unspecified) was > 30 µM

The reported AC50 of the compound CCc1ccc(CCOc2ccc(CC3SC(=O)NC3=O)cc2)nc1 (stereo unspecified) was > 10 µM

The reported AC50 of the compound CO[C@@]12[C@H](COC(N)=O)C3=C(C(=O)C(C)=C(N)C3=O)N1C[C@@H]1N[C@@H]12 was > 30 µM

The reported AC50 of the compound C1N2CN3CN1CN(C2)C3 was > 30 µM

For each of the compounds below, note its AC50.
1. COc1ccc(CCC(C)NCC(O)c2ccc(O)c([S+](C)[O-])c2)cc1 (stereo unspecified)
2. CC(C)OC(=O)[C@H](C)N[P@](=O)(OC[C@H]1O[C@@H](n2ccc(=O)[nH]c2=O)[C@](C)(F)[C@@H]1O)Oc1ccccc1

A:
1. 20.3 µM
2. > 30 µM

For each of the compounds below, note its AC50.
1. CC(=O)OC[C@H]1O[C@@H](n2ccc(=O)[nH]c2=O)[C@H](OC(C)=O)[C@@H]1OC(C)=O [URIDINE TRIACETATE]
2. CC(N/C(=N\C#N)Nc1ccncc1)C(C)(C)C (stereo unspecified) [PINACIDIL ANHYDROUS]
3. Nc1nc2c(ncn2CCC(CO)CO)c(=O)[nH]1

A:
1: > 30 µM; 2: > 30 µM; 3: > 30 µM

---

- study.target: Muscarinic acetylcholine receptor M1 (Homo sapiens, UniProt P11229); also: assay procedure not described here
- Sequence (P11229 whole entry): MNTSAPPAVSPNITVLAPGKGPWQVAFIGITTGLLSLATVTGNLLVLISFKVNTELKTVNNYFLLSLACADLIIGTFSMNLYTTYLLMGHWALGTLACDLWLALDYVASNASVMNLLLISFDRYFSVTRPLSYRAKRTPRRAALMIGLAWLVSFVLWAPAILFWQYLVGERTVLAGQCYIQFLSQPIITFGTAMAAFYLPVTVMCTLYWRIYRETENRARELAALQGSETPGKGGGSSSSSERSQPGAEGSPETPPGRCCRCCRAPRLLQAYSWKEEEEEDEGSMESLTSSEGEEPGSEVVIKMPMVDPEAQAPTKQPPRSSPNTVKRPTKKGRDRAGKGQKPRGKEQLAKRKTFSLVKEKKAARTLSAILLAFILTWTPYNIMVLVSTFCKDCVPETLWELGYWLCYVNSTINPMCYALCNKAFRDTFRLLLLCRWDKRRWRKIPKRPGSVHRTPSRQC
- Assay type: functional
For each entry below, report its AC50 value.

Result for C[N+](C)(C)CC(=O)O , tested on Muscarinic acetylcholine receptor M1 (Homo sapiens, UniProt P11229), AC50: > 30 µM

Result for CN1C(=O)CC(c2ccccc2)C1=O (configuration not stated) [PHENSUXIMIDE] , tested on Muscarinic acetylcholine receptor M1 (Homo sapiens, UniProt P11229), AC50: > 10 µM

Result for CCCC(CCC)C(=O)O[C@H]1C[C@H]2CC[C@@H](C1)[N+]2(C)C , tested on Muscarinic acetylcholine receptor M1 (Homo sapiens, UniProt P11229), AC50: 0.17 µM

Result for CN(C)[C@@H]1C(O)=C(C(N)=O)C(=O)[C@@]2(O)C(O)=C3C(=O)c4c(O)ccc(Cl)c4[C@@H](O)[C@H]3C[C@@H]12 , tested on Muscarinic acetylcholine receptor M1 (Homo sapiens, UniProt P11229), AC50: > 10 µM

For each of the compounds below, note its AC50.
1. C[C@H]1C[C@@H]2[C@H]([C@@H](O)C[C@@]3(C)[C@H]2CC[C@]3(O)C(=O)COC(=O)CCC(=O)O)[C@@]2(C)C=CC(=O)C=C12 [METHYLPREDNISOLONE HEMISUCCINATE]
2. COc1cc(Nc2c(C#N)cnc3cc(OCCCN4CCN(C)CC4)c(OC)cc23)c(Cl)cc1Cl
3. O=C(C[S+]([O-])C(c1ccccc1)c1ccccc1)NO (configuration not stated)
4. CN1CCC2=C(C1)C(c1ccccc1)c1ccccc12 (configuration not stated)

A:
1: > 30 µM; 2: > 10 µM; 3: > 30 µM; 4: > 10 µM

For each of the compounds below, note its AC50.
1. NC(CO)C(=O)NNCc1ccc(O)c(O)c1O (configuration not stated) [BENSERAZIDE]
2. NC(=O)c1ncn([C@@H]2O[C@H](CO)[C@@H](O)[C@H]2O)c1O
3. CN(CCOc1ccc(NS(C)(=O)=O)cc1)CCc1ccc(NS(C)(=O)=O)cc1 [DOFETILIDE]
4. CCc1nn(CCCN2CCN(c3cccc(Cl)c3)CC2)c(=O)n1CCOc1ccccc1

A:
["> 10 µM", "> 30 µM", "> 10 µM", "> 10 µM"]

---

For each entry below, report its AC50 value.
- study.target: UniProtKB P08172
- Sequence (P08172 whole entry): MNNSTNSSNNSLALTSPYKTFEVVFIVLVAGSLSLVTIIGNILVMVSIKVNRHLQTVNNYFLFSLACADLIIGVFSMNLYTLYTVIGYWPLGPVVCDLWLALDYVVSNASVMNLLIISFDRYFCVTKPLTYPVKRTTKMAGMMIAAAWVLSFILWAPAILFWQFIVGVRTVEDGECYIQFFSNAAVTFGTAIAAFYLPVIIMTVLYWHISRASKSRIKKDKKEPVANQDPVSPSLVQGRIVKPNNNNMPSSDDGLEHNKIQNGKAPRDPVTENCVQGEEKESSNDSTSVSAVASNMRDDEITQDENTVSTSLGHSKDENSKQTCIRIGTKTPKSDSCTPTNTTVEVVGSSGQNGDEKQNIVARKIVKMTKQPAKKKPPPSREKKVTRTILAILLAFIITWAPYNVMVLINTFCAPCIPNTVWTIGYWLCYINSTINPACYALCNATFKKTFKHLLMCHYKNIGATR
- Format: functional, cell-based

Observe how each entry below is paired with its result.
Result for Cc1nc2ccc(CN(C)c3ccc(C(=O)N[C@@H](CCC(=O)O)C(=O)O)s3)cc2c(=O)[nH]1 [RALTITREXED] , tested on UniProtKB P08172, AC50: > 30 µM

Result for CN(CCCN1c2ccccc2CCc2ccccc21)CC(=O)c1ccc(Cl)cc1 [LOFEPRAMINE] , tested on UniProtKB P08172, AC50: > 30 µM

Result for O=P(O)(O)C(O)(Cc1cccnc1)P(=O)(O)O [RISEDRONIC ACID] , tested on UniProtKB P08172, AC50: > 30 µM

For each of the compounds below, note its AC50.
1. NC[C@H]1O[C@H](O[C@H]2[C@H](O)[C@@H](O[C@H]3O[C@H](CO)[C@@H](O)[C@H](N)[C@H]3O)[C@H](N)C[C@@H]2N)[C@H](O)[C@@H](O)[C@@H]1O [KANAMYCIN]
2. O=C1CCC(N2C(=O)c3ccccc3C2=O)C(=O)N1 (stereo not drawn) [THALIDOMIDE]

A:
> 10 µM
> 10 µM

For each of the compounds below, note its AC50.
1. Cc1ccc(-c2nc3ccc(C)cn3c2CC(=O)N(C)C)cc1 [ZOLPIDEM]
2. CC(C(O)c1ccc(O)cc1)N1CCC(Cc2ccccc2)CC1 (stereo not drawn) [IFENPRODIL]
3. OCc1cc([C@@H](O)CNCCCCCCOCCOCc2c(Cl)cccc2Cl)ccc1O [VILANTEROL]
4. O=C(O)CCn1c2c(c3ccccc31)C[C@H](NS(=O)(=O)c1ccc(F)cc1)CC2 [RAMATROBAN]
5. COC(=O)N[C@H](C(=O)N1CCC[C@H]1c1nc(-c2ccc(-c3ccc(-c4c[nH]c([C@@H]5CCCN5C(=O)[C@@H](NC(=O)OC)C(C)C)n4)cc3)cc2)c[nH]1)C(C)C
6. NS(=O)(=O)c1cc(Cl)c(Cl)c(S(N)(=O)=O)c1 [DICHLORPHENAMIDE]
7. NC(=O)C[S+]([O-])C(c1ccccc1)c1ccccc1 (stereo not drawn) [MODAFINIL]

A:
["> 30 µM", "> 30 µM", "> 30 µM", "> 10 µM", "> 30 µM", "> 10 µM", "> 10 µM"]

For each of the compounds below, note its AC50.
1. N[C@@H](CSCC(=O)O)C(=O)O [CARBOCYSTEINE]
2. C#C[C@]1(O)CC[C@H]2[C@@H]3CCc4cc(O)ccc4[C@H]3CC[C@@]21C [ETHINYL ESTRADIOL]
3. CN1CC[C@]23CCCC[C@H]2[C@H]1Cc1ccc(O)cc13 [LEVORPHANOL]
4. CC(=O)NS(=O)(=O)c1ccc(N)cc1 [SULFACETAMIDE]
5. NC(=O)c1cnccn1 [PYRAZINAMIDE]
6. C1=Cc2cccc(OCC3CNCCO3)c2C1 (stereo not drawn) [INDELOXAZINE]

A:
> 30 µM
> 10 µM
> 10 µM
> 10 µM
> 30 µM
> 30 µM

---

Target or system Cholecystokinin receptor type A (Homo sapiens); recorded quantity AC50. Also: assay procedure not described here.

The reported AC50 of the molecule CN1C(=O)CC(c2ccccc2)C1=O (stereo not given) [PHENSUXIMIDE] was > 10 µM

The reported AC50 of the molecule CN(C)[C@@H]1C(O)=C(C(N)=O)C(=O)[C@@]2(O)C(O)=C3C(=O)c4c(O)ccc(Cl)c4[C@@H](O)[C@H]3C[C@@H]12 was > 10 µM

For each of the molecules below, note its AC50.
1. CNC(=O)c1cc(Oc2ccc(NC(=O)Nc3ccc(Cl)c(C(F)(F)F)c3)cc2)ccn1
2. NS(=O)(=O)c1cc2c(cc1Cl)NCNS2(=O)=O [HYDROCHLOROTHIAZIDE]
3. CCc1ccc(CCOc2ccc(CC3SC(=O)NC3=O)cc2)nc1 (stereo not given)
4. CN[C@@H](C)[C@H](O)c1ccccc1

A:
1: > 30 µM; 2: > 30 µM; 3: > 30 µM; 4: > 30 µM

For each of the molecules below, note its AC50.
1. O=C1NCCN1CCN1CCC(c2cn(-c3ccc(F)cc3)c3ccc(Cl)cc23)CC1
2. CN[C@@H]1[C@H](O)[C@H](NC)[C@H]2O[C@@]3(O)C(=O)C[C@@H](C)O[C@H]3O[C@@H]2[C@H]1O
3. O=C(CCCCCCC(=O)Nc1ccccc1)NO
4. Cc1c(C(=O)Nc2ccc(N3C[C@@H](C)O[C@@H](C)C3)nc2)cccc1-c1ccc(OC(F)(F)F)cc1
5. CN1CC[C@]23CCCC[C@H]2[C@H]1Cc1ccc(O)cc13
6. CC(=O)c1ccc2c(c1)N(CCCN1CCN(CCO)CC1)c1ccccc1S2
7. O=C(O)CCCc1ccccc1
8. C1=Cc2cccc(OCC3CNCCO3)c2C1 (stereo not given)

A:
["> 30 µM", "> 10 µM", "> 30 µM", "> 30 µM", "> 10 µM", "> 30 µM", "> 10 µM", "> 30 µM"]

For each of the molecules below, note its AC50.
1. CC(C)c1c(C(=O)Nc2ccccc2)c(-c2ccccc2)c(-c2ccc(F)cc2)n1CC[C@@H](O)C[C@@H](O)CC(=O)O
2. COC(=O)N[C@H](C(=O)N[C@@H](Cc1ccccc1)[C@@H](O)CN(Cc1ccc(-c2ccccn2)cc1)NC(=O)[C@@H](NC(=O)OC)C(C)(C)C)C(C)(C)C
3. COC(=O)C1=C(C)NC(C)=C(C(=O)OCC(C)C)C1c1ccccc1[N+](=O)[O-] (stereo not given)
4. OCCN1CCN(CCCN2c3ccccc3C=Cc3ccccc32)CC1
5. Cc1nc2ccc(CN(C)c3ccc(C(=O)N[C@@H](CCC(=O)O)C(=O)O)s3)cc2c(=O)[nH]1
6. CCN1CCC[C@H]1CNC(=O)c1cc(S(N)(=O)=O)ccc1OC [LEVOSULPIRIDE]
7. CN1CCCC(n2nc(Cc3ccc(Cl)cc3)c3ccccc3c2=O)CC1 (stereo not given)
8. CN1CC(=O)N2[C@H](c3ccc4c(c3)OCO4)c3[nH]c4ccccc4c3C[C@@H]2C1=O

A:
> 30 µM
17.6 µM
> 10 µM
> 30 µM
> 30 µM
> 30 µM
> 30 µM
> 30 µM

For each of the molecules below, note its AC50.
1. C[C@H]1C[C@@H]2[C@H]([C@@H](O)C[C@@]3(C)[C@H]2CC[C@]3(O)C(=O)CO)[C@@]2(C)C=CC(=O)C=C12
2. CCC(C(=O)O)c1ccc(CC(C)C)cc1 (stereo not given)
3. CCNC(C)Cc1cccc(C(F)(F)F)c1 (stereo not given)
4. [H]/N=C(/N)c1ccc(NCc2nc3cc(C(=O)N(CCC(=O)O)c4ccccn4)ccc3n2C)cc1

A:
> 10 µM
> 30 µM
> 30 µM
> 30 µM

For each of the molecules below, note its AC50.
1. CCc1nn(CCCN2CCN(c3cccc(Cl)c3)CC2)c(=O)n1CCOc1ccccc1
2. CN1C(=O)COc2c(C(=O)NC3CN4CCC3CC4)cc(Cl)cc21 (stereo not given)
3. O=C(O)c1cc(-c2ccc(F)cc2F)ccc1O
4. CCCC(=O)N1CCCN(c2nc(N)c3cc(OC)c(OC)cc3n2)CC1
5. COc1cc2c(cc1OC)C(=O)C(CC1CCN(Cc3ccccc3)CC1)C2 (stereo not given)
6. COc1ccc2cccc(CCNC(C)=O)c2c1
7. CC(C(O)c1ccc(O)cc1)N1CCC(Cc2ccccc2)CC1 (stereo not given)
8. Cc1cc(-c2ccccc2)nnc1NCCN1CCOCC1

A:
["13.3 µM", "> 30 µM", "> 10 µM", "> 30 µM", "> 30 µM", "> 30 µM", "> 30 µM", "> 30 µM"]

The reported AC50 of the molecule CC(=O)NS(=O)(=O)c1ccc(N)cc1 [SULFACETAMIDE] was > 10 µM

These measurements were taken from ChEMBL document CHEMBL5291721.
